tested on: MDA-MB-468 breast; assay: NCI tumour cell line growth inhibition, 48 h; in the data active means GI50 below about 0.43 µM; inactive means the rest
Outcome field: choose from 1 (active), 0 (inactive)

| COMPOUND | ANSWER_LABEL |
| --- | --- |
| O=S1(=O)N(Cc2ccccc2)[C@@H](Cc2ccccc2)C2O[C@H]2[C@H](Cc2ccccc2)N1Cc1ccccc1 (stereo not given in full) | 1 |

What classification did COc1cc2c(cc1OCCCOC1=C=C=C(c3ccc4c(c3)c3cc(-c5ccc(OCCCOc6cc7c(cc6OC)C(=O)N6CCC[C@H]6C=N7)cc5)ccc3n4S(=O)(=O)c3ccc(C)cc3)C=C1)N=C[C@@H]1CCCN1C2=O end up with in this test?
0

What classification did CCCCCCCCCCCCCC[P+](CCCCCC)(CCCCCC)CCCCCC end up with in this test?
1
